B1: ATGL (PNPLA2, patatin-like phospholipase domain-containing protein 2), human, full length / CIDEC (FSP27), human (parent)
chain 1: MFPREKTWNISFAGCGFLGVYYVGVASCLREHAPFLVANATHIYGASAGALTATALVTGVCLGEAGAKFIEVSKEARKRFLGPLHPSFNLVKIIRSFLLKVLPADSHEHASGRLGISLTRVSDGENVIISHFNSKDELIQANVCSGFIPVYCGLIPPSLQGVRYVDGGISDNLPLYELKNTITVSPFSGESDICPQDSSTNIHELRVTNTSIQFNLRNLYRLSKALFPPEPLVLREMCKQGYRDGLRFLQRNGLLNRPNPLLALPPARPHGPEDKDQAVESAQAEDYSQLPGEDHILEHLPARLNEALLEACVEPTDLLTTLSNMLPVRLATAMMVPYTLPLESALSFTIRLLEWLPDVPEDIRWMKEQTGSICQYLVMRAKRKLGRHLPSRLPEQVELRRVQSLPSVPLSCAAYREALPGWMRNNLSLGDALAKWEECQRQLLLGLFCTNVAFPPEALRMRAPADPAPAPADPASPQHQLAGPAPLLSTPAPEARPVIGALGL
chain 2: MEYAMKSLSLLYPKSLSRHVSVRTSVVTQQLLSEPSPKAPRARPCRVSTADRSVRKGIMAYSLEDLLLKVRDTLMLADKPFFLVLEEDGTTVETEEYFQALAGDTVFMVLQKGQKWQPPSEQGTRHPLSLSHKPAKKIDVARVTFDLYKLNPQDFIGCLNVKATFYDTYSLSYDLHCCGAKRIMKEAFRWALFSMQATGHVLLGTSCYLQQLLDATEEGQPPKGKASSLIPTCLKILQ

- Variants of: B1
- protocolNotes: LUMIER: Protein A-ATGL variant and firefly luciferase-partner co-expressed in HEK293T, lysates immunoprecipitated on IgG-coated plates, co-precipitated partner measured as luciferase luminescence
- measurementContext: with CIDEC (FSP27), transient co-transfection, IgG-coated LUMITRAC plates, 2 h at 4 °C, three PBS washes, Bright-Glo luciferase reagent, triplicates per assay, two …, parent: 0.17, not graded, scale: log2 fold change of co-immunoprecipitated luminescence relative to wild-type ATGL within each experiment
experimentalReadout: screen value

Prompt: Query: screen value; subject: chain 1 R329E
Response: 0.201

Prompt: Which screen value value belongs to chain 1 I70K ?
Response: -0.434

Prompt: I would be grateful if you could share the reported screen value for chain 1 S158E .
Response: -0.309

Prompt: So what does the record say about screen value for chain 1 R113K ?
Response: -0.11

Prompt: Would you mind telling me what screen value value was observed for chain 1 L62K ?
Response: -0.0341

Prompt: # query: screen value of entry chain 1 R113L
Response: -0.719

Prompt: Please look up its screen value: chain 1 H109E
Response: -0.00157

Prompt: # input variant: chain 1 Q396A ; wanted: its screen value
Response: 0.0352

Prompt: Give its screen value value. Item: chain 1 G66L
Response: 0.197

Prompt: // lookup screen value for chain 1 Y415A
Response: -0.411

Prompt: Entry chain 1 K275A : reported screen value = ?
Response: -0.673

Prompt: Return reported screen value; argument: chain 1 S158A
Response: -0.128

Prompt: Look up screen value: chain 1 S106K
Response: -0.0703
